Target: full-length WT STING (Homo sapiens, UniProt Q86WV6, H232R)
Construct: AviTag (after gg linker) (C); HRV3C cleavage site (after gs linker) (C); HIS8 (C); made in house; host or cells: Trichoplusia ni (Hi-Five) insect cells infected with baculovirus (virus generated and amplified in Sf21 cells); used as a washed membrane preparation
Sequence (Q86WV6 with tags, fused parts or gaps H232R): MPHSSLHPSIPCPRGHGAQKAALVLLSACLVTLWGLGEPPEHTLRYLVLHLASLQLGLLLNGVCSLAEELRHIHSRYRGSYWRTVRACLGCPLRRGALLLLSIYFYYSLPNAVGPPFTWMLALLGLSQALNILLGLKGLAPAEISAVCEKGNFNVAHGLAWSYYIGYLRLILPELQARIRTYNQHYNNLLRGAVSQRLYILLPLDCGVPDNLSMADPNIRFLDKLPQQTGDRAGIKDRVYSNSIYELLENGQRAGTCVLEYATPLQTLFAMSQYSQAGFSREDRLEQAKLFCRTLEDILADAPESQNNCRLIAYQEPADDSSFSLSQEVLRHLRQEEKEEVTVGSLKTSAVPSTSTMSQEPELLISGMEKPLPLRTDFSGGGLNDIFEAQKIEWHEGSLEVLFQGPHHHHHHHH
Assay: 3H-cGAMP filtration binding assay (WT STING)
Details: competition with tritiated cGAMP, WT STING membrane
Each entry below carries its reported EC50.

COMPOUND	MEASUREMENT_UNITS	EC50
COc1cc2sc(C(=O)CCC(=O)O)cc2cc1OCCCOc1c(OC)cc2sc(C(=O)C[C@H](C)C(=O)O)cc2c1F [Example 39]	nM	2
Cc1cc2sc(C(=O)CCC(=O)O)cc2cc1CCCc1cc2cc(C(=O)CCC(=O)O)sc2cc1C [Example 28]	nM	112
COc1cc2cc(C(=O)C[C@H](C)C(=O)O)sc2cc1OCCCOc1cc2sc(C(=O)C[C@H](C)C(=O)O)cc2cc1OC [Example 47]	nM	81
COc1cc2sc(C(=O)CCC(=O)O)cc2c(F)c1OCCOc1c(OC)cc2sc(C(=O)CCC(=O)O)cc2c1F [Example 65]	nM	1
